Attribute: protein stability index
test: protein stability index of a GFP-peptide fusion (yeast GPS) (PSI 1-4); higher = more stable; sorted into four equal gates, so the index is relative within each strain; settings: san1∆
Hey, just send me the number, nothing else.

PRVQGFYVPQARNVTFD [GRR1]: 2.91
ASTVAKTAPIQESFVPN [YOR098C/NUP1]: 2.94
ERHQAGKNQWFFSKLRF [RPL27A]: 3.09
LVADGVFYAELNEFFTR [RPS3]: 3.08
NRVPDGFQDRSLPHFPK [RPO31]: 3.02

Q. Identify measured protein stability index corresponding to PDFKPWEHTAAEDQILA [SRB8]
A. 3.03

Q. Supply measured protein stability index of ESDSKATLQSNEPTQKD [DSN1] in your reply.
A. 2.99
